test system: MCF-7 human breast cancer cells; assay: cells; assay type: cell-based; settings: MTT assay, MCF-7; read-out: Cytotoxicity, IC50, MCF-7;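 also: IC50 values, including those behind the selectivity ratio, derive from formazan absorbance at 570 nm, tested in triplicate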
Parameter: IC50 (µM)
One number for each entry, in µM.

Query :: Provide the documented IC50 with MCF-7 human breast cancer cells as the system for CO[C@@H]1[C@@H](O)[C@H](O[C@@H]2[C@@H](O)[C@H](O[C@@H]3CO[C@@H](O[C@H]4CC[C@]5(C)C6=CCC78C(=O)O[C@@](C)([C@@H](CCC(C)C)OC(C)=O)[C@H]7[C@@H](OC(C)=O)C[C@@]8(C)[C@@H]6CC[C@H]5C4(C)C)[C@H](O[C@@H]4O[C@H](C)[C@@H](O[C@@H]5OC[C@@H](O)[C@H](O[C@@H]6O[C@H](CO)[C@@H](O)[C@H](OC)[C@H]6O)[C@H]5O)[C@H](O)[C@H]4O)[C@H]3O)O[C@H](C)[C@H]2O)O[C@H](CO)[C@H]1O (stereo partly shown) [Cladoloside H1 (26), Cladoloside H1]
Result :: 15.9

* * *

system: MDA-MB-231 triple-negative breast cancer cells; assay: cells; format: cell-based, human; details: MTT assay, MDA-MB-231; read-out: Cytotoxicity, IC50, MDA-MB-231
Parameter: pIC50
Numbers only, as −log10 of the molar value.

CO[C@@H]1[C@@H](O)[C@H](O[C@@H]2[C@@H](O)[C@H](O[C@H]3[C@H](O)[C@@H](O)[C@H](O[C@H]4[C@H](O[C@H]5CC[C@]6(C)C7=CCC89C(=O)O[C@@](C)([C@@H](CCC(C)C)OC(C)=O)[C@H]8[C@@H](OC(C)=O)C[C@@]9(C)[C@@H]7CC[C@H]6C5(C)C)OC[C@@H](O[C@@H]5O[C@H](CO)[C@@H](O)[C@H](O)[C@H]5O)[C@@H]4O)O[C@@H]3C)OC[C@H]2O)O[C@H](COS(=O)(=O)[O-])[C@H]1O.[Na+] (some centres unmarked) [Cladoloside I1 (28), cladoloside I1] | 5.52
C=C(C)CCC[C@]1(C)OC(=O)C23CC=C4[C@@H](CC[C@H]5C(C)(C)[C@@H](O[C@@H]6OC[C@@H](O[C@@H]7O[C@H](CO)[C@@H](O)[C@H](O[C@@H]8O[C@H](COS(=O)(=O)[O-])[C@@H](O)[C@H](OC)[C@H]8O)[C@H]7O)[C@H](O)[C@H]6O[C@@H]6O[C@H](C)[C@@H](O[C@@H]7OC[C@@H](O)[C@H](O)[C@H]7O)[C@H](O)[C@H]6O)CC[C@]45C)[C@]2(C)CC(=O)[C@@H]31.[Na+] (some centres unmarked) [Cladoloside J1 (30), Cladoloside J1] | 5.21

Query :: Returns the measured pIC50 for the input compound. Input: C=C(C)CC[C@@H](O)[C@]1(C)OC(=O)C23CC=C4[C@@H](CC[C@H]5C(C)(C)[C@@H](O[C@@H]6OC[C@@H](O[C@@H]7O[C@H](CO)[C@@H](O)[C@H](O[C@@H]8O[C@H](CO)[C@@H](O)[C@H](OC)[C@H]8O)[C@H]7O)[C@H](O)[C@H]6O[C@@H]6O[C@H](C)[C@@H](O[C@@H]7OC[C@@H](O)[C@H](O[C@@H]8O[C@H](COS(=O)(=O)[O-])[C@@H](O)[C@H](OC)[C@H]8O)[C@H]7O)[C@H](O)[C@H]6O)CC[C@]45C)[C@]2(C)C[C@H](OC(C)=O)[C@@H]31.[Na+] (some centres unmarked) [Cladoloside K2 (32), cladoloside K2]
Result :: 5.17

Attribution: paper PMC12299463
